Listing of entries alongside the reported cytotoxicity at 70.5 h.
# test.description: Human HepG2 cell viability assay in 384 well format
# Assay type: toxicity, cell-based
# Design: dose 125 nL, time 70.5 hour; concentration not given beside the values
# recorded.conditions: HepG2 cells, read-out: Inhibition
Answer in %, number only, no unit symbol.

- compound: "CC1CN(CC(=O)N2CCCC2)CCN1c1ccc2nncn2n1 (stereo not drawn)"
  display.unit: "%"
  value.observed: 4.7
- compound: "O=C(CCN1CCCCO1)NC1CCCN(CC2CCCCC2)C1 (stereo not drawn)"
  display.unit: "%"
  value.observed: -8.52
- compound: "Cc1cc(C(C)NC(=O)N2CCC(n3cncn3)CC2)c(C)s1 (stereo not drawn)"
  display.unit: "%"
  value.observed: -17.7
- compound: "Cc1cnn(C2CN(CC(=O)NCC(C)C)C2)c1"
  display.unit: "%"
  value.observed: -13.6
- compound: "CCc1nnc2n1CCN(Cc1nnc(-c3occc3C)o1)C2"
  display.unit: "%"
  value.observed: -4.81
- compound: "CC(c1ccccn1)N(C)C(=O)NCCn1c(=O)oc2ccccc21 (stereo not drawn)"
  display.unit: "%"
  value.observed: 6.82
- compound: "COc1ccc([C@@H]2CN(Cc3cccnc3N)C[C@H]2NC(C)=O)cc1"
  display.unit: "%"
  value.observed: -8.12
- compound: "CSCC(=O)NS(=O)(=O)c1ccc2c(c1)OCCO2"
  display.unit: "%"
  value.observed: 0.628

Ask: Could you tell me which cytotoxicity at 70.5 h is on file for NC(=O)NC1(C(=O)N2CCc3c(Cl)cccc3C2)CCCCC1 ?
Result: 8.62

Ask: Would you kindly share the measured cytotoxicity at 70.5 h for CCN(CC)[C@H]1C[C@@H](Cc2cc(CO)on2)C1(C)C ?
Result: -7.1

Ask: I'd like to know its cytotoxicity at 70.5 h. The compound in question is O=C(c1ccc2c(c1)OCO2)N1CCN2C(=O)NC[C@H]2C1
Result: -7.42

Ask: Endpoint output: cytotoxicity at 70.5 h of Cc1cc(CS(=O)(=O)N(C)C(C)c2ccc(Cl)cc2)on1 (stereo not drawn) . Value?
Result: -11.1

====

Measured cytotoxicity at 70.5 h, listed per entry for reference.
# test.description: Human HepG2 cell viability assay in 384 well format
# Type: toxicity, cell-based
# Parameters: dose 125 nL, time 70.5 hour; concentration not given beside the values
# recorded.conditions: HepG2 cells, read-out: Inhibition
Note: unit % is implicit; provide only the numeric part.

Ask: Would you kindly share the measured cytotoxicity at 70.5 h for COC(=O)c1sccc1NC(=O)C1CCCN1C(=O)c1ccco1 (stereo unspecified) ?
Result: 16.3

Ask: // lookup cytotoxicity at 70.5 h for CC(C)C1CN(C(=O)c2ccc(N3CCCC3)nc2)CCS1 (stereo unspecified)
Result: -8.6

Ask: Consider the molecule shown here: CC(Nc1cccc(CN2CCOC2=O)c1)C(=O)Nc1cccc(F)c1 (stereo unspecified) What is its recorded cytotoxicity at 70.5 h?
Result: -0.899

Ask: Which cytotoxicity at 70.5 h value is on record for O=C(CN1CCC(c2nnc(C(F)(F)F)o2)CC1)Nc1cccc(Cl)c1 ?
Result: 19.3

====

# cytotoxicity at 70.5 h listing for each entry below
# test.description: Human HepG2 cell viability assay in 384 well format
# Assay type: toxicity, cell-based
# Set-up: dose 125 nL, time 70.5 hour; concentration not given beside the values
# recorded.conditions: HepG2 cells, read-out: Inhibition
Report the figure in % without appending any unit label.

Reference set, count: 5
- compound: "O=C([C@H]1CCS(=O)(=O)[C@@H]2CN(CCc3ccccc3)C[C@H]12)N1CCCC1"
  display.unit: "%"
  cytotoxicity at 70.5 h: -1.64
- compound: "O=C(COc1coc(CN2CCCC2)cc1=O)Nc1cc(Cl)ccc1Cl"
  display.unit: "%"
  cytotoxicity at 70.5 h: -7.96
- compound: "Cc1cnn(CC2CN(Cc3nc(-c4ccsc4)no3)CCO2)c1 (centres undefined)"
  display.unit: "%"
  cytotoxicity at 70.5 h: -14.2
- compound: "Cc1noc(C)c1C(=O)N1CCC2(CCc3ccccc3C(=O)N2)C1 (centres undefined)"
  display.unit: "%"
  cytotoxicity at 70.5 h: -4.04
- compound: "Cc1noc([C@@H]2C[C@H]3CN(Cc4scnc4C)C[C@H]3O2)n1"
  display.unit: "%"
  cytotoxicity at 70.5 h: -4.75

Ask: Sample CC1N(C)C(=O)COC12CCN(Cc1nccs1)CC2 (centres undefined) — what was its cytotoxicity at 70.5 h?
Result: -9.04

Ask: Give its cytotoxicity at 70.5 h value. Item: O=C1CC2(CCN(C(=O)c3ccccn3)CC2)Oc2c(Cl)cc(Cl)cc21
Result: -6.72

Ask: Need cytotoxicity at 70.5 h of CC1CCCCN1C(=O)c1ccc2c(c1)OCCCO2 (centres undefined) , thanks.
Result: 10.5

Ask: Recorded cytotoxicity at 70.5 h for CCCC1(CNCc2ncc[nH]2)CCC1 , please?
Result: -8.95

Ask: Can you share its cytotoxicity at 70.5 h? I mean this compound: CC1(C)CN(C(=O)c2ncc(F)cc2F)CCC1(O)CN1CCOCC1 (centres undefined)
Result: -0.112

Ask: Which cytotoxicity at 70.5 h reading was recorded for the compound O=C(COc1coc(CN2CCCCCC2)cc1=O)c1ccccc1 ?
Result: 25.4

Ask: I'd like to know its cytotoxicity at 70.5 h. The compound in question is Cc1cc(C(F)(F)F)nc(CNC(=O)CCCN2CCCCC2)n1
Result: -2.62

Ask: If you can, please state the reported cytotoxicity at 70.5 h value of CCN(Cc1ccc2c(c1)OCO2)C(=O)c1ccc(C)[nH]c1=O .
Result: 35.4

Ask: Record request: cytotoxicity at 70.5 h value, item COc1cccc(C(=O)N2CCOCC2CN(C)C)c1OC (centres undefined)
Result: -2.02

Ask: Endpoint output: cytotoxicity at 70.5 h of Cc1cnc2c(c1NCc1cccs1)c(=O)n(C)c(=O)n2C . Value?
Result: -16.9

Ask: Give the measured cytotoxicity at 70.5 h of CSCC(C)(O)CNC(=O)c1ccc(Br)cc1F (centres undefined) .
Result: -5.28

Ask: Using the record for Cn1cccc1-c1cc(C(=O)N2CCCC2C(F)(F)F)[nH]n1 (centres undefined) , report its cytotoxicity at 70.5 h.
Result: -5.87

Ask: Which value of cytotoxicity at 70.5 h has been reported for CCn1cnnc1C1CCCN(C(=O)COc2ccc(Cl)cc2)C1 (centres undefined) in the records?
Result: -5.18

Ask: Any idea what cytotoxicity at 70.5 h was measured for CC(C)(C)c1noc(CCC(=O)NCC2CCS(=O)(=O)C2)n1 (centres undefined) ?
Result: 1.1

Ask: Name the recorded cytotoxicity at 70.5 h for OC1(CNc2cccc(F)c2)CCNCC1 .
Result: -3.17

====

# test.description: Human HepG2 cell viability assay in 384 well format
# Assay type: toxicity, cell-based
# Design: dose 125 nL, time 70.5 hour; concentration not given beside the values
# recorded.conditions: HepG2 cells, read-out: Inhibition
metric.name: cytotoxicity at 70.5 h (%)
Give the quantity in %, number only.

Ask: Please give the measured cytotoxicity at 70.5 h for this compound: Cc1cc(C2CCCN(C(=O)COc3cc(F)ccc3F)C2)n[nH]1 (stereo unspecified)
Result: 3.52

Ask: Using the record for Cc1cc(C(=O)NCc2ccnc(N3CCOCC3)c2)c(C)s1 , report its cytotoxicity at 70.5 h.
Result: -13.9

Ask: I have this compound here, Cc1cc(N2CCCN(c3nc(C)nc(C)c3C)CC2)ccn1 , and I need its recorded cytotoxicity at 70.5 h.
Result: -11

Ask: Would you kindly share the measured cytotoxicity at 70.5 h for Cc1noc(C)c1CNC(=O)NCCC(=O)N1CCCc2ccccc21 ?
Result: 3.77

Ask: Form field: reported cytotoxicity at 70.5 h of Nc1nc2c(c(N3CCCC(CN4CCCC4=O)C3)n1)CCNCC2 (stereo unspecified)
Result: -5.58

Ask: Would you kindly share the measured cytotoxicity at 70.5 h for CCn1cnnc1CNS(=O)(=O)N1CCCC1c1ccc(C)o1 (stereo unspecified) ?
Result: -4.31

====

# test.description: Human HepG2 cell viability assay in 384 well format
# Format: toxicity, cell-based
# Set-up: dose 125 nL, time 70.5 hour; concentration not given beside the values
# recorded.conditions: HepG2 cells, read-out: Inhibition
metric.name: cytotoxicity at 70.5 h (%)
Response body: numeric value in %, unit text excluded.

Reference set, count: 5
- compound: "CN(C)c1cc(C2CCCN2C(=O)c2noc3c2CCCC3)ccn1 (centres undefined)"
  display.unit: "%"
  value.observed: -6.7
- compound: "Cc1ccc(-n2c(SCC(=O)O)nnc2-c2cccc(C)c2)cc1"
  display.unit: "%"
  value.observed: -7.34
- compound: "CC[C@@]1(O)CCN(c2ncc(Cl)cc2F)C[C@H]1O"
  display.unit: "%"
  value.observed: -13.4
- compound: "COCCO[C@H]1CCN(c2cc(OC)ncn2)[C@H]1Cc1ccncc1"
  display.unit: "%"
  value.observed: -1.44
- compound: "O=C(N[C@H]1CN(C2CCOCC2)C[C@@H]1C1CC1)c1ccon1"
  display.unit: "%"
  value.observed: -4.68

From here, focus on the item given below.
Ask: Need cytotoxicity at 70.5 h of Cc1nn(C)c(C)c1CN1CCNCC1 , thanks.
Result: -4.45

The values you see were collected from ChEMBL document CHEMBL3507680.
